Cited source for all entries: ChEMBL document CHEMBL1128174

Species: Mus musculus
Test: Antagonism of methyl phenidate-induced gnawing behavior in mice
Assay type: functional
Conditions: Mus musculus; read-out: ED50
In this section we review reported ED50 values for a set of compounds.

CN1CCN(C2CC(c3ccccc3)c3ccccc32)CC1(C)C (stereo not given) :: > 36 µmol/kg

Provide measured ED50 value, entry: CN1CCN(C2CC(c3ccc(F)cc3)c3cc(Cl)ccc32)CC1(C)C (stereo not given)
> 110 µmol/kg

Provide measured ED50 value, entry: CN1CCN(C2CC(c3ccc(F)cc3)c3c(Cl)cccc32)CC1(C)C (stereo not given)
> 36 µmol/kg

Provide measured ED50 value, entry: CN1CCN(C2CC(c3ccc(Cl)cc3)c3ccc(Cl)cc32)CC1(C)C (stereo not given)
> 69 µmol/kg

Provide measured ED50 value, entry: CC1CN(C2CC(c3ccc(F)cc3)c3ccc(Cl)cc32)C(C)CN1C (stereo not given)
> 66 µmol/kg

###

In this section we review reported ED50 values for a set of compounds.
Organism: Rattus norvegicus
Assay: Cataleptogenic effect in rats
Type: functional

Below, 5 compounds whose answers are already recorded.
CN1CCN(C2CC(c3ccccc3)c3ccc(Cl)cc32)CC1(C)C (single isomer, unassigned; (-)) :: >85 µM/kg
CC1(C)CN(C2CC(c3ccc(F)cc3)c3ccc(Cl)cc32)CCN1 (stereo in doubt; (-)-41) :: >84 µM/kg
CN1CCN(C2CC(c3ccc(F)cc3)c3ccc(F)cc32)CC1(C)C (stereo in doubt; 40) :: >68 µM/kg
CC1(C)CN(C2CC(c3ccsc3)c3ccc(Cl)cc32)CCN1 (stereo in doubt; 54) :: >35 µM/kg
CC(C)N1CCN(C2CC(c3ccc(F)cc3)c3ccc(Cl)cc32)CC1(C)C (single isomer, unassigned; (-)) :: 7.1 µM/kg

Provide measured ED50 value, entry: CN1CCN(C2CC(c3ccc(F)cc3)c3ccc(Cl)cc32)CC1(C)C (stereo in doubt; 28)
25 µM/kg

Provide measured ED50 value, entry: CN1CCN(C2CC(c3ccc(F)cc3)c3ccccc32)CC1(C)C (stereo in doubt; (-)-39)
>44 µM/kg

Provide measured ED50 value, entry: CN1CCN(C2CC(c3ccc(F)cc3)c3ccc(Cl)cc32)CC1(C)C (stereo in doubt; (-)-28)
9.8 µM/kg

###

Biological target: 5-hydroxytryptamine receptor 2A (Rattus norvegicus)
Sequence (P14842 whole entry): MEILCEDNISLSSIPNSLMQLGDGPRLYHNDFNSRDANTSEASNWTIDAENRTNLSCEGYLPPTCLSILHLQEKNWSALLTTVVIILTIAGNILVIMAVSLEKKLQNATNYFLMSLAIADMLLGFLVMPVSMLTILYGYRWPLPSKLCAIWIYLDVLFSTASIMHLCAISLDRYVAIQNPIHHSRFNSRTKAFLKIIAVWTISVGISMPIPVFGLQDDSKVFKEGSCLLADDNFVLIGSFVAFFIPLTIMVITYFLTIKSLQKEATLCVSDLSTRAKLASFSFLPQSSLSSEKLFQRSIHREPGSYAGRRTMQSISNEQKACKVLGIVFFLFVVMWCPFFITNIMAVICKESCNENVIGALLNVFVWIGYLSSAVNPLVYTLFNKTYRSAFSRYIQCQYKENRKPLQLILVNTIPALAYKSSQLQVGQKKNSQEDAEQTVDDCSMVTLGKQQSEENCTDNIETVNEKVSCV
value.kind: IC50 (nM)
A number alone suffices; assume nM.

Below, 2 compounds whose answers are already recorded.
CN1CCN(C2CC(c3ccc(F)cc3)c3ccc(Cl)cc32)CC1(C)C (stereo in doubt; 28) :: 2.1
CN1CCN(C2CC(c3ccccc3)c3ccc(Cl)cc32)CC1(C)C (stereo in doubt; (+)-38) :: 68

Write IC50 of CN1CCN(C2CC(c3ccc(F)cc3)c3ccccc32)CC1(C)C (stereo in doubt; (-)-39) ; system used: 5-hydroxytryptamine receptor 2A (Rattus norvegicus)
2.9

###

Target: D(1A) dopamine receptor (Rattus norvegicus, UniProt P18901)
Sequence (P18901 whole entry): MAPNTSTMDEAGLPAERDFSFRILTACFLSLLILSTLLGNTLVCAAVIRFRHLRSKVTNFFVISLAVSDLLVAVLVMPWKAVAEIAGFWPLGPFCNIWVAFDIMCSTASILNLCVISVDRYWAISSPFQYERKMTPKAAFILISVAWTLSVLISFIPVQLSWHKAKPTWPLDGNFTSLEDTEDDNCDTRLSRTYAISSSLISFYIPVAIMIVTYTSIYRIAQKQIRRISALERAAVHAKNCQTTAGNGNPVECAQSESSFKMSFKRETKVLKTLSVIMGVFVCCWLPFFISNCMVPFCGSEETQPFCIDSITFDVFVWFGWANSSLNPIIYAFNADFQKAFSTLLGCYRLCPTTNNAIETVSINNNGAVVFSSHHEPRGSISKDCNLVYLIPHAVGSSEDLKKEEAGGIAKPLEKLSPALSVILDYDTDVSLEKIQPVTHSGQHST
Assay: Binding affinity for dopamine receptor D1, activity is expressed as IC50 values.
In this section we review reported pIC50 values for a set of molecules.
Scale note: pIC50 = -log10(concentration in M).

Below, 5 molecules whose answers are already recorded.
OCCN1CCN(C2CC(c3ccc(F)cc3)c3ccc(F)cc32)CC1 (configuration not stated) :: 7.80
CN1CCN(C2CC(c3ccc(F)cc3)c3ccc(Cl)cc32)CC12CCCC2 (stereo in doubt; (-)-34) :: 9.02
CC1(C)CN(C2CC(c3ccsc3)c3ccc(Cl)cc32)CCN1 (single isomer, unassigned; (-)) :: 9.08
OCCN1CCN(C2CC(c3ccc(F)cc3)c3cccc(Cl)c32)CC1 (configuration not stated) :: 6.89
CN1CCN(C2CC(c3ccc(F)cc3)c3ccc(F)cc32)CC1(C)C (stereo in doubt; (+)-40) :: 7.06

Provide measured pIC50 value, entry: CC1(C)CN(C2CC(c3ccc(F)cc3)c3ccc(Cl)cc32)CCN1 (stereo in doubt; (-)-41)
8.96

Provide measured pIC50 value, entry: CN1CCN(C2CC(c3ccc(F)cc3)c3ccc(Cl)cc32)CC12CCCC2 (stereo in doubt; 34)
9.07

Provide measured pIC50 value, entry: OCCN1CCN(C2CC(c3ccccc3)c3ccccc32)CC1 (configuration not stated)
6.14

Provide measured pIC50 value, entry: Cc1ccc2c(c1)C(N1CCN(C)CC1)CC2c1ccc(F)cc1 (configuration not stated)
7.42

Provide measured pIC50 value, entry: OCCN1CCN(C2CC(c3ccc(F)cc3)c3ccc(Cl)cc32)CC12CCCC2 (stereo in doubt; (-)-35)
9.00

Provide measured pIC50 value, entry: CN1CCN(C2CC(c3ccc(F)cc3)c3ccc(Cl)cc32)CC1(C)C (stereo in doubt; (+)-28)
6.21

Provide measured pIC50 value, entry: CC1(C)CN(C2CC(c3ccc(F)cc3)c3ccc(Cl)cc32)CCN1 (single isomer, unassigned; (+))
5.96
